All figures here come from paper PMC8467532.

Biological target: DYRK1A kinase domain (Homo sapiens)
Construct: kinase domain of DYRK1A (126–490) was cloned into pET24a with C-terminal His-tag; made in house; host or cells: E. coli BL21 (DE3) RIL
Assay: MST direct binding assay
Conditions: MST direct binding, 20 nM fluorescent-labelled DYRK1A kinase domain
Quick reference for Kd among some molecules
quantity_measured: Kd (nM)

[
  {
    "smiles_input": "NS(=O)(=O)c1ccc(-c2cnc3[nH]cc(-c4cccnc4)c3c2)cc1",
    "obs_value": 380
  },
  {
    "smiles_input": "CN1C(=O)[C@H]2CCC[C@H]2N(C2CCCC2)c2nc(Nc3ccc(C(N)=O)cc3)ncc21",
    "obs_value": 12900
  },
  {
    "smiles_input": "C=CC(=O)Nc1ccc(C(=O)c2sc(Nc3ccc(N4CCN(C)CC4)cc3OC)nc2N)cc1",
    "obs_value": 1100
  },
  {
    "smiles_input": "C=CC(=O)Nc1cccc(C(=O)c2sc(Nc3ccc(N4CCN(C)CC4)cc3)nc2N)c1",
    "obs_value": 27000
  },
  {
    "smiles_input": "O=c1ccc2cnc3ccc(-c4cn[nH]c4)cc3c2n1-c1ccc(F)cc1C(F)(F)F",
    "obs_value": 1800
  },
  {
    "smiles_input": "COc1ccc(N)cc1-c1cnc(N)c(C(=O)c2cccnc2)n1",
    "obs_value": 2600
  }
]
